Measured values drawn from patent US20210115447 for this set.

Can you tell me Kd for the items I'm about to list?
# assay.target: T1, LAG-3 (lymphocyte activation gene 3) (Homo sapiens, UniProt P18627 P18627:23-450)
# T1 sequence: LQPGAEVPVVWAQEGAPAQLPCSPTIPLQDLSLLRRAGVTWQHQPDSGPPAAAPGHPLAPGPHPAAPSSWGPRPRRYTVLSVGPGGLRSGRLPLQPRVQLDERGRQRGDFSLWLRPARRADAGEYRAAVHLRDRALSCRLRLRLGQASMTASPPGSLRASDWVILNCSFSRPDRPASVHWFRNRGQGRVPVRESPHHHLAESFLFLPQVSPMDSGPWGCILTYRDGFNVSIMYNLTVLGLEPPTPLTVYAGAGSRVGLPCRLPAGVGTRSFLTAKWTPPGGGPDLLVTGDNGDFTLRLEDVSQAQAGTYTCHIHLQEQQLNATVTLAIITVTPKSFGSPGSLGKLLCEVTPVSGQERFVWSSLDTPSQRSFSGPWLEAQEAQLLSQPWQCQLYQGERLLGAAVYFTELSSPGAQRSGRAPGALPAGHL
# assay.procedure: pulldown; His-LAG-3 on nickel beads, qPCR
# run.conditions: tags: His-tagged, attached to nickel coated beads or plate wells; label: 5'-biotin
Answers are plain numbers, in nM.

Solved cases (2 shown):
{"columns": ["binder", "Kd, nM"],
 "data": [
  ["ACGGCGCTAACTGGGGGGGGTTAGTTCAATACATG (ssDNA) [5'Bio-B4-SL2]", 8.05],
  ["GCTAACTGGGGGGGGTTAGTTCAATACATGCGGGC (ssDNA) [5'Bio-B4-SL3]", 10.7]
]}

// moving on: another record for Kd
// query Looking for the measured Kd of CTGGGGGGGGTTAGTTCAATACATGCGGGCGGCCA (ssDNA) [5'Bio-B4-SL4] , can you help?
// result 9.47
